Test system: ORYSA (rice)
Test: Postemergence herbicidal safening in direct seeded rice, visual injury
Details: alone, 35 g ai/ha; after 3 weeks
Description: A=observed efficacy of active ingredient A at the same concentration as used in the mixture. B=observed efficacy of active ingredient B at the same concentration as used in the mixture.
Kindly state Visual Injury (%) ‘Lemont’ ORYSA Obs for each of the entries shown.
Numbers only, in %.

Check out these entries, answers already filled in.
>>> assayvalue("CCOC(=O)C1=NOC(c2ccccc2)(c2ccccc2)C1")
5
>>> assayvalue("N#C/C(=N\\OCC1OCCO1)c1ccccc1")
0
>>> assayvalue("Clc1cc(Cl)nc(-c2ccccc2)n1")
0
>>> assayvalue("Cc1ccc(NC(=O)NC(C)(C)c2ccccc2)cc1")
0

Now consider the entry below.
QUERY: # query: Visual Injury (%) ‘Lemont’ ORYSA Obs | item CCCCCC(C)OC(=O)COc1ccc(Cl)c2cccnc12 (centres unmarked) | system: ORYSA (rice)
RESULT: 0

---

System: ORYSA (rice)
Experiment: Postemergence herbicidal safening in direct seeded rice, visual injury
Conditions: alone, 70 g ai/ha; after 3 weeks
observable: Visual Injury (%) ‘Lemont’ ORYSA Obs
One number for each entry, in %.

>>> assayvalue("CCOC(=O)C1=NOC(c2ccccc2)(c2ccccc2)C1")
10

State the recorded Visual Injury (%) ‘Lemont’ ORYSA Obs for every item in the following list.
1. N#C/C(=N\OCC1OCCO1)c1ccccc1
2. Cc1ccc(NC(=O)NC(C)(C)c2ccccc2)cc1
3. CCCCCC(C)OC(=O)COc1ccc(Cl)c2cccnc12 (stereo not shown)
4. Clc1cc(Cl)nc(-c2ccccc2)n1
5. COc1c(Cl)ccc(-c2cc(N)c(Cl)c(C(=O)[O-])n2)c1F.[Na+] [Compound 1 Na + salt]
6. COc1c(Cl)ccc(-c2cc(N)c(Cl)c(C(=O)[O-])n2)c1Cl.[Na+] [Compound 2 Na + salt]

RESULT:
[15, 0, 0, 0, 50, 15]
